# Test system: Streptococcus pyogenes C203
# assay.details: MIC, standard agar-dilution assay
# Format: cell-based
measurement.type: MIC

>>> value_observed("CCCCCN(C)[C@H](CC(C)C)C(=O)N[C@H]1C(=O)N[C@@H](CC(N)=O)C(=O)N[C@H]2C(=O)N[C@H]3C(=O)N[C@H](C(=O)N[C@H](C(=O)O)c4cc(O)cc(O)c4-c4cc3ccc4O)[C@H](O[C@H]3C[C@](C)(N)[C@@H](O)[C@H](C)O3)c3ccc(c(Cl)c3)Oc3cc2cc(c3O[C@@H]2O[C@H](CO)[C@@H](O)[C@H](O)[C@H]2O[C@H]2C[C@](C)(N)[C@@H](O)[C@H](C)O2)Oc2ccc(cc2Cl)[C@H]1O [Compound 35]")
".25 µg/mL"
>>> value_observed("CCN(CC)c1ccc(CNC2(C)CC(OC3C(Oc4c5cc6cc4Oc4ccc(cc4Cl)C(OC4CC(C)(N)C(O)C(C)O4)C4NC(=O)C(NC(=O)C6NC(=O)C(CC(N)=O)NC(=O)C(NC(=O)C(CC(C)C)NC)C(O)c6ccc(c(Cl)c6)O5)c5ccc(O)c(c5)-c5c(O)cc(O)cc5C(C(=O)O)NC4=O)OC(CO)C(O)C3O)OC(C)C2O)cc1 (stereo not drawn) [Compound 56]")
".5 µg/mL"
>>> value_observed("CCCCCNC1(C)CC(OC2c3ccc(cc3)Oc3cc4cc(c3O)Oc3ccc(cc3Cl)C(O)C(NC(=O)C(CC(C)C)NC)C(=O)NC(CC(N)=O)C(=O)NC4C(=O)NC3C(=O)NC2C(=O)NC(C(=O)O)c2cc(O)cc(O)c2-c2cc3ccc2O)OC(C)C1O (stereo not drawn) [Compound 74]")
"4 µg/mL"
>>> value_observed("CNC(CC(C)C)C(=O)NC1C(=O)NC(CC(N)=O)C(=O)NC2C(=O)NC3C(=O)NC(C(=O)NC(C(=O)O)c4cc(O)cc(O)c4-c4cc3ccc4O)C(OC3CC(C)(NCc4ccccc4)C(O)C(C)O3)c3ccc(c(Cl)c3)Oc3cc2cc(c3O)Oc2ccc(cc2Cl)C1O (stereo not drawn) [Compound 79]")
".25 µg/mL"
>>> value_observed("CCCCCCCCN[C@@]1(C)C[C@H](O[C@H]2[C@H](Oc3c4cc5cc3Oc3ccc(cc3Cl)[C@@H](O[C@H]3C[C@](C)(N)[C@@H](O)[C@H](C)O3)[C@@H]3NC(=O)[C@H](NC(=O)[C@@H]5NC(=O)[C@H](CC(N)=O)NC(=O)[C@H](NC(=O)[C@@H](CC(C)C)NC)[C@H](O)c5ccc(c(Cl)c5)O4)c4ccc(O)c(c4)-c4c(O)cc(O)cc4[C@@H](C(=O)O)NC3=O)O[C@H](CO)[C@@H](O)[C@@H]2O)O[C@@H](C)[C@@H]1O [Compound 38]")
".06 µg/mL"
>>> value_observed("CNC(CC(C)C)C(=O)NC1C(=O)NC(CC(N)=O)C(=O)NC2C(=O)NC3C(=O)NC(C(=O)NC(C(=O)O)c4cc(O)cc(O)c4-c4cc3ccc4O)C(OC3CC(C)(NCc4ccccc4)C(O)C(C)O3)c3ccc(c(Cl)c3)Oc3cc2cc(c3OC2OC(CO)C(O)C(O)C2O)Oc2ccc(cc2Cl)C1O (stereo not drawn) [Compound 76]")
".5 µg/mL"

----------
compounds and their reported MIC
# Tested on: Staphylococcus aureus V41
# assay.details: MIC, standard agar-dilution assay
# Format: cell-based
measurement.type: MIC (µg/mL)

>>> value_observed("CCCCCCCCN[C@@]1(C)C[C@H](O[C@H]2[C@H](Oc3c4cc5cc3Oc3ccc(cc3Cl)[C@@H](O[C@H]3C[C@](C)(N)[C@@H](O)[C@H](C)O3)[C@@H]3NC(=O)[C@H](NC(=O)[C@@H]5NC(=O)[C@H](CC(N)=O)NC(=O)[C@H](NC(=O)[C@@H](CC(C)C)NC)[C@H](O)c5ccc(c(Cl)c5)O4)c4ccc(O)c(c4)-c4c(O)cc(O)cc4[C@@H](C(=O)O)NC3=O)O[C@H](CO)[C@@H](O)[C@@H]2O)O[C@@H](C)[C@@H]1O [Compound 38]")
1
>>> value_observed("CC(C)C[C@H](C(=O)N[C@H]1C(=O)N[C@@H](CC(N)=O)C(=O)N[C@H]2C(=O)N[C@H]3C(=O)N[C@H](C(=O)N[C@H](C(=O)O)c4cc(O)cc(O)c4-c4cc3ccc4O)[C@H](O[C@H]3C[C@](C)(NCc4ccccc4)[C@@H](O)[C@H](C)O3)c3ccc(cc3)Oc3cc2cc(c3O[C@@H]2O[C@H](CO)[C@@H](O)[C@H](O)[C@H]2O[C@H]2C[C@](C)(NCc3ccccc3)[C@@H](O)[C@H](C)O2)Oc2ccc(cc2Cl)[C@H]1O)N(C)Cc1ccccc1 [Compound 12]")
8
>>> value_observed("CNC(CC(C)C)C(=O)NC1C(=O)NC(CC(N)=O)C(=O)NC2C(=O)NC3C(=O)NC(C(=O)NC(C(=O)O)c4cc(O)cc(O)c4-c4cc3ccc4O)C(OC3CC(C)(NCc4ccccc4)C(O)C(C)O3)c3ccc(cc3)Oc3cc2cc(c3OC2OC(CO)C(O)C(O)C2O)Oc2ccc(cc2Cl)C1O (centres unmarked) [Compound 70]")
2
>>> value_observed("CN[C@H](CC(C)C)C(=O)N[C@H]1C(=O)N[C@@H](CC(N)=O)C(=O)N[C@H]2C(=O)N[C@H]3C(=O)N[C@H](C(=O)N[C@H](C(=O)O)c4cc(O)cc(O)c4-c4cc3ccc4O)[C@H](O[C@H]3C[C@](C)(N)[C@@H](O)[C@H](C)O3)c3ccc(cc3)Oc3cc2cc(c3O[C@@H]2O[C@H](CO)[C@@H](O)[C@H](O)[C@H]2O[C@H]2C[C@](C)(NCc3ccc(Br)cc3)[C@@H](O)[C@H](C)O2)Oc2ccc(cc2Cl)[C@H]1O [Compound 18]")
1
>>> value_observed("CNC(CC(C)C)C(=O)NC1C(=O)NC(CC(N)=O)C(=O)NC2C(=O)NC3C(=O)NC(C(=O)NC(C(=O)O)c4cc(O)cc(O)c4-c4cc3ccc4O)C(OC3CC(C)(NCc4ccccc4)C(O)C(C)O3)c3ccc(cc3)Oc3cc2cc(c3O)Oc2ccc(cc2Cl)C1O (centres unmarked) [Compound 73]")
1
>>> value_observed("CCCCCCC(=O)N[C@@]1(C)C[C@H](O[C@H]2[C@H](Oc3c4cc5cc3Oc3ccc(cc3Cl)[C@@H](O)[C@@H](NC(=O)[C@@H](CC(C)C)NC)C(=O)N[C@@H](CC(N)=O)C(=O)N[C@H]5C(=O)N[C@H]3C(=O)N[C@H](C(=O)N[C@H](C(=O)O)c5cc(O)cc(O)c5-c5cc3ccc5O)[C@H](O[C@H]3C[C@](C)(N)[C@@H](O)[C@H](C)O3)c3ccc(cc3)O4)O[C@H](CO)[C@@H](O)[C@@H]2O)O[C@@H](C)[C@@H]1O [Compound 27]")
1

----------
# System: Staphylococcus epidermidis EPI270
# assay.details: MIC, standard agar-dilution assay
# Format: cell-based
measurement.type: MIC

>>> value_observed("CCN(CC)c1ccc(CN[C@@]2(C)C[C@H](O[C@H]3[C@H](Oc4c5cc6cc4Oc4ccc(cc4Cl)[C@@H](O)[C@@H](NC(=O)[C@@H](CC(C)C)NC)C(=O)N[C@@H](CC(N)=O)C(=O)N[C@H]6C(=O)N[C@H]4C(=O)N[C@H](C(=O)N[C@H](C(=O)O)c6cc(O)cc(O)c6-c6cc4ccc6O)[C@H](O[C@H]4C[C@](C)(N)[C@@H](O)[C@H](C)O4)c4ccc(cc4)O5)O[C@H](CO)[C@@H](O)[C@@H]3O)O[C@@H](C)[C@@H]2O)cc1")
"1 µg/mL"
>>> value_observed("CN[C@H](CC(C)C)C(=O)N[C@H]1C(=O)N[C@@H](CC(N)=O)C(=O)N[C@H]2C(=O)N[C@H]3C(=O)N[C@H](C(=O)N[C@H](C(=O)O)c4cc(O)cc(O)c4-c4cc3ccc4O)[C@H](O[C@H]3C[C@](C)(N)[C@@H](O)[C@H](C)O3)c3ccc(c(Cl)c3)Oc3cc2cc(c3O[C@@H]2O[C@H](CO)[C@@H](O)[C@H](O)[C@H]2O[C@H]2C[C@](C)(NCCc3ccccc3)[C@@H](O)[C@H](C)O2)Oc2ccc(cc2Cl)[C@H]1O")
"1 µg/mL"

----------
The compounds listed here are annotated with their MIC.
# Tested on: Enterococcus faecalis 2041
# assay.details: MIC, standard agar-dilution assay
# Format: cell-based
measurement.type: MIC (µg/mL)

>>> value_observed("CCCCCCCCc1ccc(CNC2(C)CC(OC3C(Oc4c5cc6cc4Oc4ccc(cc4Cl)C(OC4CC(C)(N)C(O)C(C)O4)C4NC(=O)C(NC(=O)C6NC(=O)C(CC(N)=O)NC(=O)C(NC(=O)C(CC(C)C)NC)C(O)c6ccc(c(Cl)c6)O5)c5ccc(O)c(c5)-c5c(O)cc(O)cc5C(C(=O)O)NC4=O)OC(CO)C(O)C3O)OC(C)C2O)cc1 (stereo not drawn)")
64
>>> value_observed("CCCCCCC(=O)NC1(C)CC(OC2c3ccc(c(Cl)c3)Oc3cc4cc(c3OC3OC(CO)C(O)C(O)C3OC3CC(C)(N)C(O)C(C)O3)Oc3ccc(cc3Cl)C(O)C(NC(=O)C(CC(C)C)NC)C(=O)NC(CC(N)=O)C(=O)NC4C(=O)NC3C(=O)NC2C(=O)NC(C(=O)O)c2cc(O)cc(O)c2-c2cc3ccc2O)OC(C)C1O (stereo not drawn)")
1
>>> value_observed("CCCCCNC1(C)CC(OC2c3ccc(cc3)Oc3cc4cc(c3OC3OC(CO)C(O)C(O)C3O)Oc3ccc(cc3Cl)C(O)C(NC(=O)C(CC(C)C)NC)C(=O)NC(CC(N)=O)C(=O)NC4C(=O)NC3C(=O)NC2C(=O)NC(C(=O)O)c2cc(O)cc(O)c2-c2cc3ccc2O)OC(C)C1O (stereo not drawn)")
8
>>> value_observed("CN[C@H](CC(C)C)C(=O)N[C@H]1C(=O)N[C@@H](CC(N)=O)C(=O)N[C@H]2C(=O)N[C@H]3C(=O)N[C@H](C(=O)N[C@H](C(=O)O)c4cc(O)cc(O)c4-c4cc3ccc4O)[C@H](O[C@H]3C[C@](C)(N)[C@@H](O)[C@H](C)O3)c3ccc(cc3)Oc3cc2cc(c3O[C@@H]2O[C@H](CO)[C@@H](O)[C@H](O)[C@H]2O[C@H]2C[C@](C)(NCc3ccc(Br)cc3)[C@@H](O)[C@H](C)O2)Oc2ccc(cc2Cl)[C@H]1O")
1
>>> value_observed("CCCCCNC1(C)CC(OC2c3ccc(c(Cl)c3)Oc3cc4cc(c3OC3OC(CO)C(O)C(O)C3O)Oc3ccc(cc3Cl)C(O)C(NC(=O)C(CC(C)C)NC)C(=O)NC(CC(N)=O)C(=O)NC4C(=O)NC3C(=O)NC2C(=O)NC(C(=O)O)c2cc(O)cc(O)c2-c2cc3ccc2O)OC(C)C1O (stereo not drawn)")
2
